- test target: MAP4K1 (HPK1) (Homo sapiens (Human))
- Sequence (Q92918 whole entry): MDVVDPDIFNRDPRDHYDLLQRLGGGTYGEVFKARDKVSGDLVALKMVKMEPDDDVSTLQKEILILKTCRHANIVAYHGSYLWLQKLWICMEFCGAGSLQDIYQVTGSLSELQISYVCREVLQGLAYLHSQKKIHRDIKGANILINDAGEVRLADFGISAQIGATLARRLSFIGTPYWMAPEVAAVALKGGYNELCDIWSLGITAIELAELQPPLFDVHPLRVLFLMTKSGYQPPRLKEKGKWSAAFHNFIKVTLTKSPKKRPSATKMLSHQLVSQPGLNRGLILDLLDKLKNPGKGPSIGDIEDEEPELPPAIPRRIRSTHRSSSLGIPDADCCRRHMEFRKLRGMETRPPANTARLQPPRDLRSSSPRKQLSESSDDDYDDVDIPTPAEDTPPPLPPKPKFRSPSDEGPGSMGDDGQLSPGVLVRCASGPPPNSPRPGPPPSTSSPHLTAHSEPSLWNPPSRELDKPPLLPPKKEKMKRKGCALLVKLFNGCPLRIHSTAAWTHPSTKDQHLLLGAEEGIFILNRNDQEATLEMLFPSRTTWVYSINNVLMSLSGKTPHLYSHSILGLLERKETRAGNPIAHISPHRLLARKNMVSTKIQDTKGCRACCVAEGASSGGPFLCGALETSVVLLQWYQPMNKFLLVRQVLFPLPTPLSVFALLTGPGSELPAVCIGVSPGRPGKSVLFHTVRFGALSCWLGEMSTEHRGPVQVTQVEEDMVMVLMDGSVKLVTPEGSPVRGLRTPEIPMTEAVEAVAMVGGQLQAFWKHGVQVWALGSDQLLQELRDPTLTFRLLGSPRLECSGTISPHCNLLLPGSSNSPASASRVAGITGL
- procedure details: MAP4K1 (HPK1) biochemical enzymatic activity, electrophoretic mobility shift (EZReader 2), ATP at APPKM (26 μM)
- cond: numeric value
experimental endpoint: IC50 (nM)
Kindly provide the numeric value in nM only, without the unit symbol.

Example cases with answers are listed next.
• CC[C@@](C)(N)c1cnc(OC2CC2)c2cnc(Nc3ccc4c(n3)CC(C)(C)OC4=O)cc12 (single isomer, unassigned) [Compound 132] = 0.18
• CCOc1ncc(C(C)(C)N)c2cc(Nc3ccc4c(n3)[C@@H](C)COC4=O)ncc12 (single isomer, unassigned) [Compound 43] = 0.23
• CC[C@@](C)(N)c1cnc(OC2CC2)c2cnc(Nc3ccc4c(n3)[C@@H](C)C(C)(C)OC4=O)cc12 [Compound 156] = 0.1
• CC[C@@H](N)c1cnc(OC2(C)CC2)c2cnc(Nc3ccc4c(n3)[C@@H](C)C(C)(C)OC4=O)cc12 [Compound 191] = 0.53
• CC[C@@](C)(N)c1cnc(OC2CC2)c2cnc(Nc3ccc4c(n3)C(C)(C)OC4=O)cc12 [Compound 110] = 0.55

[ask] Quick check: IC50 of CC[C@](C)(N)c1cnc(OC2CC2)c2cnc(Nc3ccc4c(n3)C3(CC3)C(C)(C)OC4=O)cc12 [Compound 196] ?
[reply] 0.1

[ask] // IC50 lookup, key: C[C@@H]1c2nc(Nc3cc4c([C@@](C)(N)C5CC5)cnc(OC5(C)CC5)c4cn3)ccc2C(=O)OC1(C)C [Compound 90]
[reply] 3.42

###

Listed here: items and their measured log10 IC50.
- test target: UniProt Q92918
- procedure details: MAP4K1 (HPK1) biochemical enzymatic activity, electrophoretic mobility shift (EZReader 2), ATP at APPKM (26 μM)
- cond: numeric value
Note the log scale: values are log10 of IC50 expressed in pM.

- CC1(C)Cc2nc(Nc3cc4c(C(C)(C)N)cnc(OC5CC5)c4cn3)ccc2C(=O)O1 [Compound 64]: 2.64
- CNc1ncc(C(C)(C)N)c2cc(Nc3cnc(C#N)c(N4CCC[C@@H]4C)n3)ncc12 [Compound 48]: 3.24

[ask] I have this molecule here, C[C@@H]1OC(=O)c2ccc(Nc3cc4c([C@](C)(N)C5CC5)cnc(OC5(C)CC5)c4cn3)nc2[C@H]1C [Compound 89] , and I need its recorded log10 IC50.
[reply] 3.71

[ask] Which log10 IC50 value belongs to CC[C@@]1(C)OC(=O)c2ccc(Nc3cc4c(C(C)(C)N)cnc(OC5CC5)c4cn3)nc21 [Compound 114] ?
[reply] 2.94

[ask] So what does the record say about log10 IC50 for COc1ncc(C(C)(C)N)c2cc(Nc3ccc4c(n3)[C@@H](C)[C@H](C)OC4=O)ncc12 [Compound 37] ?
[reply] 2.15

[ask] For the molecule C[C@@H]1OC(=O)c2ccc(Nc3cc4c(C(C)(C)N)cnc(OC5(C)CC5)c4cn3)nc2[C@H]1C [Compound 82] , what log10 IC50 is on record?
[reply] 2.20

[ask] Endpoint output: log10 IC50 of CC[C@@](C)(N)c1cnc(OCC(F)(F)F)c2cnc(Nc3ccc4c(n3)[C@@H](C)[C@H](C)OC4=O)cc12 (single isomer, unassigned) [Compound 182] . Value?
[reply] 3.47

###

- test target: MAP4K1 (HPK1) (Homo sapiens (Human))
- procedure details: MAP4K1 (HPK1) biochemical enzymatic activity, electrophoretic mobility shift (EZReader 2), ATP at APPKM (26 μM)
- cond: class designation
pIC50: −log10 of the molar value.
Recorded pIC50 by entry

* C[C@@H]1OC(=O)c2ccc(Nc3cc4c(C(C)(C)N)cnc(O[C@H]5C[C@@H](F)C5)c4cn3)nc2[C@H]1C | > 9.52
* C[C@H](Oc1ncc(C(C)(C)N)c2cc(Nc3ccc4c(n3)CC(C)(C)OC4=O)ncc12)C(F)F (single isomer, unassigned) | 8.00 to 8.96
* COC[C@@](C)(N)c1cnc(OC2CC2)c2cnc(Nc3ccc4c(n3)[C@H](C)[C@H](C)OC4=O)cc12 | > 9.52

Okay, next one:
[ask] What value of pIC50 has been recorded for this entry: CC[C@](C)(N)c1cnc(OC2(C)CC2)c2cnc(Nc3ccc4c(n3)[C@@H](C)[C@H](C)OC4=O)cc12
[reply] > 9.52
